# TEST SYSTEM: Sortase A (Staphylococcus aureus)
# Sequence (Q9S446 whole entry): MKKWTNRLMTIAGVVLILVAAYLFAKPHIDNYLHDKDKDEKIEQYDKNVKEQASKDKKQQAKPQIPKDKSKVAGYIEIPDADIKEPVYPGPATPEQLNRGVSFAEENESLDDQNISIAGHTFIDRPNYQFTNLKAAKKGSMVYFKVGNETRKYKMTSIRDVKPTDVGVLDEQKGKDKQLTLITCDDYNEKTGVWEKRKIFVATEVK
# ASSAY TEXT: Inhibition of recombinant Staphylococcus aureus wild type truncated C-terminal His6 tagged Srt A using Abz-Leu-Pro-Glu-Thr-Gly-Lys(Dnp)-NH2 as substrate preincubated for 15 mins followed by substrate addition measured after 60 mins by FRET assay
Recorded pIC50 for the following compounds
Give only the number. pIC50 is defined as minus log10 of concentration in molar units.

O=C(Nc1nnc(SCc2ccc([N+](=O)[O-])cc2)s1)c1cccnc1 has a reported pIC50 of 5.42

Field pIC50 (entry CCSc1c(S)cnn(-c2ccccc2)c1=O ) reads 5.52

Form field pIC50, entry O=C(Nc1nnc(SCc2ccc([N+](=O)[O-])cc2)s1)c1ccncc1 : 4.38

Entry CC(=O)Nc1nnc(SCc2ccc([N+](=O)[O-])cc2)s1 — recorded pIC50 = 3.90

Reported pIC50 for Nc1nnc(SCc2cccc([N+](=O)[O-])c2)s1 was 3.28

// pIC50 value for N#Cc1ccccc1CSc1nnc(N)s1 : 2.76

Looking up CC(C)n1c(S)nc2c1c(=O)n(C)c(=O)n2C , I see its pIC50 listed as 4.30

# compound Nc1nnc(SCc2ccc([N+](=O)[O-])cc2)s1 ; its pIC50 = 4.59

Looking up O=[N+]([O-])c1ccc(CSc2nnc(N3CCOCC3)s2)cc1 , I see its pIC50 listed as 5.05

// pIC50 lookup, compound = O=[N+]([O-])c1ccc(CSc2nnc(N3CCNCC3)s2)cc1 , result: 4.15

Entry FC(F)(F)c1ccnc(Sc2nc[nH]n2)n1 — recorded pIC50 = 4.72

###

# TEST SYSTEM: Sortase A (Staphylococcus aureus) (UniProt Q9S446)
# ASSAY TEXT: Inhibition of recombinant Staphylococcus aureus wild type truncated C-terminal His6 tagged Srt A at 200 uM using Abz-Leu-Pro-Glu-Thr-Gly-Lys(Dnp)-NH2 as substrate preincubated for 15 mins followed by substrate addition measured after 60 mins by FRET assay relative to control
Assign a class from recorded inhibition; defined classes: range A: < 10%; range B: ≥ 10% and < 40%; range C: ≥ 40%

Categorize the following entry: CC(=O)Nc1nnc(SCc2cccc([N+](=O)[O-])c2)s1
range B

The entry to classify is O=[N+]([O-])c1cccc(CSc2nnc(Nc3cccnc3)s2)c1 ; which class holds it?
range B

Form field 'band' for Nc1nnc(SCc2cccc([N+](=O)[O-])c2)s1
range B

Assign a category based on measured inhibition for O=[N+]([O-])c1ccc(CSc2nnc(N3CCOCC3)s2)cc1 and give only the class name.
range C

Which inhibition category applies to O=[N+]([O-])c1cccc(CSc2nnc(N3CCOCC3)s2)c1 here?
range B

Pick a category. Item: N#Cc1ccc(CSc2nnc(N)s2)cc1
range A

For this molecule, which bin applies? Nc1nnc(Sc2ccc([N+](=O)[O-])cc2)s1
range B

###

# TEST SYSTEM: Sortase A (Staphylococcus aureus)
# ASSAY TEXT: Binding affinity to Staphylococcus aureus SrtA by ligand based 1D CPMG relaxation dispersion NMR analysis
The source made the active and inactive calls. No cut-off for these calls is given here.
Answer with one of the outcomes given here: active, inactive

Before answering, review these 4 worked examples.
Which outcome was entered for the compound O=C(Nc1nnc(SCc2ccc([N+](=O)[O-])cc2)s1)c1cccnc1 in this test?
inactive

Please let me know the test result on file for Nc1nnc(SCc2cccc([N+](=O)[O-])c2)s1 .
active

Hello, I am checking results. What call was entered for N#Cc1ccc(CSc2nnc(N)s2)cc1 ?
inactive

Kindly provide the recorded test outcome for the following compound: Nc1nnc(Sc2ccc([N+](=O)[O-])c3nonc23)s1
active

More entries:
Would you mind telling me which call this test gave N#Cc1ccccc1CSc1nnc(N)s1 ?
active

Give the logged outcome of this assay for the following compound: O=[N+]([O-])c1ccc(CSc2nnc(N3CCNCC3)s2)cc1
active

###

Reported values of inhibition for individual entries
# TEST SYSTEM: Sortase A (Staphylococcus aureus)
# Sequence (whole entry): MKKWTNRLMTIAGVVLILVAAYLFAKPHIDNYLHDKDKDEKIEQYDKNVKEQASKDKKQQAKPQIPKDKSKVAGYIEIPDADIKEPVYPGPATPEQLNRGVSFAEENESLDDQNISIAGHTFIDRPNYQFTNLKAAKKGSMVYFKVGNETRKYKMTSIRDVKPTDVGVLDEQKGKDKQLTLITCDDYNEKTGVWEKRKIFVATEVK
# ASSAY TEXT: Inhibition of recombinant Staphylococcus aureus wild type truncated C-terminal His6 tagged Srt A at 200 uM using Abz-Leu-Pro-Glu-Thr-Gly-Lys(Dnp)-NH2 as substrate preincubated for 15 mins followed by substrate addition measured after 60 mins by FRET assay relative to control
Form entry: value (%) — number only.

# count of solved cases: 3
Query Nc1nnc(SCc2ccc([N+](=O)[O-])cc2)s1 on Sortase A (Staphylococcus aureus); inhibition returned: 101

Reported Sortase A (Staphylococcus aureus) inhibition for item N#Cc1ccccc1CSc1nnc(N)s1 was 1

Given the compound O=C(Nc1nnc(SCc2cccc([N+](=O)[O-])c2)s1)c1ccncc1 and test system Sortase A (Staphylococcus aureus), the measured inhibition is 8

---
Result for O=C(Nc1nnc(SCc2ccc([N+](=O)[O-])cc2)s1)c1ccncc1 , tested on Sortase A (Staphylococcus aureus), inhibition: 99

Observed inhibition, Sortase A (Staphylococcus aureus), O=[N+]([O-])c1cccc(CSc2nnc(N3CCNCC3)s2)c1 : 27

Tested on Sortase A (Staphylococcus aureus): Nc1nnc(Sc2ccccc2)s1 . Observed inhibition: 25

For the compound Nc1nnc(SCCc2cccc([N+](=O)[O-])c2)s1 , the measured inhibition on Sortase A (Staphylococcus aureus) was 13

Known value: Sortase A (Staphylococcus aureus) inhibition of the compound Nc1nnc(SCc2ccccc2)s1 equals 0

Simply: Nc1nnc(SCc2ccc3ccccc3c2)s1 , Sortase A (Staphylococcus aureus), inhibition = 13

###

# TEST SYSTEM: Sortase A (Staphylococcus aureus) (UniProt Q9S446)
# ASSAY TEXT: Inhibition of recombinant Staphylococcus aureus wild type truncated C-terminal His6 tagged Srt A at 200 uM using Abz-Leu-Pro-Glu-Thr-Gly-Lys(Dnp)-NH2 as substrate preincubated for 15 mins followed by substrate addition measured after 60 mins by FRET assay relative to control
PROPERTY MEASURED: inhibition (%)
Respond with the bare value in %.

Consider O=C(Nc1nnc(SCc2cccc([N+](=O)[O-])c2)s1)c1cccnc1 . Its measured inhibition is 13

The compound listed as O=[N+]([O-])c1ccc(CSc2nnc(N3CCNCC3)s2)cc1 shows inhibition equal to 80

For O=C(Nc1nnc(SCc2ccc([N+](=O)[O-])cc2)s1)c1cccnc1 the compound record lists inhibition as 100

The value of inhibition measured for the compound O=C(Nc1nnc(SCc2cccc([N+](=O)[O-])c2)s1)c1ccco1 turned out to be 6

###

# TEST SYSTEM: Sortase A (Staphylococcus aureus)
# ASSAY TEXT: Inhibition of recombinant Staphylococcus aureus wild type truncated C-terminal His6 tagged Srt A at 200 uM using Abz-Leu-Pro-Glu-Thr-Gly-Lys(Dnp)-NH2 as substrate preincubated for 15 mins followed by substrate addition measured after 60 mins by FRET assay relative to control
PROPERTY MEASURED: inhibition (%)
Give the value, in units of %, as a plain number.

// field: inhibition; key: O=[N+]([O-])c1cccc(CSc2nnc(Br)s2)c1 ; value = 19

// sample Nc1nnc(SCc2ccc(F)cc2)s1 , its inhibition was 5

Form field inhibition, entry CC(=O)Nc1nnc(SCc2ccc([N+](=O)[O-])cc2)s1 : 94
